Data provenance is ChEMBL document CHEMBL5370672.

- assay.notes: AUC (0 to infinity) in BALB/c mouse at 20 mg/kg, po measured after 24 hrs by LC-MS/MS analysis
- Assay type: ADME, organism-based
- Parameters: time 24 hrs, dose 20 mg/kg, route po
- setup.conditions: in vivo
measure: AUC(0-inf) (ng·h/mL)
Please reply with the bare figure in ng·h/mL and do not write the unit itself.

Request: Which value of AUC(0-inf) has been reported for Cn1nc(Cc2ccc(NS(N)(=O)=O)cc2)c2ccccc2c1=O in the records?
Response: 79600

---

- assay.notes: Cmax in BALB/c mouse at 20 mg/kg, po measured after 24 hrs by LC-MS/MS analysis
- Type: ADME, organism-based
- Design: dose 20 mg/kg, time 24 hrs, route po
- setup.conditions: in vivo
measure: Cmax
Report as: number unit

Request: Which value of Cmax has been reported for Cn1nc(Cc2ccc(NS(N)(=O)=O)cc2)c2ccccc2c1=O in the records?
Response: 12700 ng/mL

---

- assay.notes: Half-life in BALB/c mouse at 20 mg/kg, po measured after 24 hrs by LC-MS/MS analysis
- Format: ADME, organism-based
- setup.conditions: in vivo
measure: half-life (h)
Please reply with the bare figure in h and do not write the unit itself.

Request: Which value of half-life has been reported for Cn1nc(Cc2ccc(NS(N)(=O)=O)cc2)c2ccccc2c1=O in the records?
Response: 2.8

---

- assay.notes: Clearance in BALB/c mouse at 5 mg/kg, iv measured after 24 hrs by LC-MS/MS analysis
- Format: ADME, organism-based
- setup.conditions: in vivo
measure: clearance (mL/min/kg)
Please reply with the bare figure in mL/min/kg and do not write the unit itself.

Request: Which value of clearance has been reported for Cn1nc(Cc2ccc(NS(N)(=O)=O)cc2)c2ccccc2c1=O in the records?
Response: 2.88

---

- assay.notes: Volume of distribution at steady state in BALB/c mouse at 5 mg/kg, iv measured after 24 hrs by LC-MS/MS analysis
- Assay type: ADME, organism-based
- setup.conditions: in vivo, read-out: Vdss
measure: Vd (L/kg)
Please reply with the bare figure in L/kg and do not write the unit itself.

Request: Which value of Vd has been reported for Cn1nc(Cc2ccc(NS(N)(=O)=O)cc2)c2ccccc2c1=O in the records?
Response: 0.51

---

- assay.notes: AUC (0 to t) in BALB/c mouse at 20 mg/kg, po measured after 24 hrs by LC-MS/MS analysis
- Assay type: ADME, organism-based
- Design: time 24 hrs, dose 20 mg/kg, route po
- setup.conditions: in vivo
measure: AUC(0-t) at 24 h (ng·h/mL)
Please reply with the bare figure in ng·h/mL and do not write the unit itself.

Request: Which value of AUC(0-t) at 24 h has been reported for Cn1nc(Cc2ccc(NS(N)(=O)=O)cc2)c2ccccc2c1=O in the records?
Response: 79400

---

- assay.notes: Metabolic stability in mouse liver microsome assessed as parent compound remaining measured after 30 mins by LC/MS analysis
- Type: ADME
- setup.conditions: liver microsomes, read-out: Stability
measure: remaining at 0.5 h (%)
Please reply with the bare figure in % and do not write the unit itself.

Request: Which value of remaining at 0.5 h has been reported for Cn1nc(Cc2ccc(NS(N)(=O)=O)cc2)c2ccccc2c1=O in the records?
Response: 65

---

- target.or.system: Ectonucleotide pyrophosphatase/phosphodiesterase family member 1 (Homo sapiens, UniProt P22413)
- Sequence (P22413 whole entry): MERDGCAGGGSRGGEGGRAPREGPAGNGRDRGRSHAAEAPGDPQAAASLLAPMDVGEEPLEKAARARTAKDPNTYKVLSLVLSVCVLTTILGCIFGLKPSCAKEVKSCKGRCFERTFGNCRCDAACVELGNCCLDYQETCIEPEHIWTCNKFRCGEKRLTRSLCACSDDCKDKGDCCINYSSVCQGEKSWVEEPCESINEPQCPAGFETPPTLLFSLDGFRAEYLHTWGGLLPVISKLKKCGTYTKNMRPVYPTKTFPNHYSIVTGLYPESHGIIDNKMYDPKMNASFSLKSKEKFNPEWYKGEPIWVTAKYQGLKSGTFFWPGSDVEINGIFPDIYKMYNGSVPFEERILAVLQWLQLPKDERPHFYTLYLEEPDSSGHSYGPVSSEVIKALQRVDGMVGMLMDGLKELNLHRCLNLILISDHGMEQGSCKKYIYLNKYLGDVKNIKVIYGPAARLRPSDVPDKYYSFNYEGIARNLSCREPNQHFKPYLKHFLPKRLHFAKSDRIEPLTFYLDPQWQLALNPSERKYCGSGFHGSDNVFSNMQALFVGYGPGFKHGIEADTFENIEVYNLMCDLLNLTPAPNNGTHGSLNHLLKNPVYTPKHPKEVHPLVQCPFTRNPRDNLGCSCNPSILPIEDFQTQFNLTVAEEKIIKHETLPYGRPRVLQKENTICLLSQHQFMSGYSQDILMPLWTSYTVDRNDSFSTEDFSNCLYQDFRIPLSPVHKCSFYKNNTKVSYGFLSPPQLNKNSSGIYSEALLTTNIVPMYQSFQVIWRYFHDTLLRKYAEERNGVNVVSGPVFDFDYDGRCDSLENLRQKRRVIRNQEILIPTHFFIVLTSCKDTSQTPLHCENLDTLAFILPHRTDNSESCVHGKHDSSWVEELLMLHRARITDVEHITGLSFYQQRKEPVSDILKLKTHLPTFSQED
- assay.notes: Inhibition of recombinant human ENPP1 using cGAMP as substrate assessed as inhibition of cGAMP hydrolysis preincubated for 5 to 10 mins followed by substrate addition and measured after 90 mins by AMP-Glo reagent based luminescence plate reader analysis
Listed next: entries and their corresponding pIC50.
# pIC50 = -log10(concentration in molar units)

smiles.repr	pIC50
NS(=O)(=O)Nc1ccc(Cc2n[nH]c(=O)c3ccccc23)c(C(F)(F)F)c1	5.87
COc1ccc2c(=O)n(C)nc(-c3ccc(CNS(N)(=O)=O)cc3)c2c1	5.88
NS(=O)(=O)NCc1ccc(-c2nn(-c3ccccc3)c(=O)c3ccccc23)cc1	5.94

Alright, here's another molecule for you.
Request: Which value of pIC50 has been reported for CN(c1ccc(Cc2n[nH]c(=O)c3ccccc23)cc1)S(N)(=O)=O in the records?
Response: 5.94
